IC50 listing for selected compounds.
ASSAYED_SYSTEM: Human thrombin (Homo sapiens, UniProt P00734)
Construct: purchased Haematologic Technologies Inc
ASSAY_EXPLANATION: Inhibition of the protease activity of thrombin (chromogenic substrate S-2238)
Type: biochemical
CONDITION: inhibition of the protease activity of thrombin; class symbols a/b/c
Experimental: Compounds described herein can be assayed, by a variety of methods known in the art and described herein, for inhibition of biological activity, e.g., protease activity, of a variety of proteins, e.g., thrombin. […] Thrombin was assayed in buffer containing 0.05 M Tris (pH 7.4), 0.015 M NaCl and 0.01% PEG-8000. […] Inhibitor IC50 values were determined by adding test compound as ten point, three-fold serial dilutions in buffer solution, as known in the art. […]

Observe how each entry below is paired with its result.
SMILES_STRING: Cc1ccc(C(=O)n2nc(-c3ccccc3F)cc2NCc2ccccc2)c(N)c1
RESULT: > 1000 nM
//
SMILES_STRING: COc1ccc(CNc2nc(-c3ccncc3)nn2C(=O)c2ccco2)cc1
RESULT: 100 to 1000 nM
//
SMILES_STRING: CC(=O)c1cn(-c2ccccc2)nc1NCc1ccc(F)cc1
RESULT: > 1000 nM
//
SMILES_STRING: CCC(=O)n1nc(-c2cccnc2)nc1NCc1ccccc1F
RESULT: 100 to 1000 nM
//
SMILES_STRING: CCC(=O)c1cn(-c2ccccc2)nc1NCc1ccc(F)cc1
RESULT: > 1000 nM
//
SMILES_STRING: CC(C)(C)C(=O)n1nc(-c2cccs2)nc1NCc1ccccc1
RESULT: < 100 nM
//
SMILES_STRING: COc1ccccc1C(=O)n1nc(-c2ncccn2)nc1NCc1ccccc1
RESULT: < 100 nM
//
SMILES_STRING: CC(=O)c1cn(-c2ccccn2)nc1NCc1ccc(F)cc1
RESULT: > 1000 nM

Which IC50 is reported for this compound? COc1ccccc1C(=O)n1nc(-c2ccccn2)nc1NCc1ccsc1
< 100 nM

Another: CCC(=O)n1nc(-c2cccnc2)nc1NCc1ccc(C#N)cc1
> 1000 nM

====

Overview of reported IC50 across a group of compounds:
ASSAYED_SYSTEM: Human thrombin (Homo sapiens)
Construct: purchased Haematologic Technologies Inc
ASSAY_EXPLANATION: Inhibition of the protease activity of thrombin (chromogenic substrate S-2238)
Type: biochemical
CONDITION: inhibition of the protease activity of thrombin
Description: Compounds described herein can be assayed, by a variety of methods known in the art and described herein, for inhibition of biological activity, e.g., protease activity, of a variety of proteins, e.g., thrombin. […] Thrombin was assayed in buffer containing 0.05 M Tris (pH 7.4), 0.015 M NaCl and 0.01% PEG-8000. […] Inhibitor IC50 values were determined by adding test compound as ten point, three-fold serial dilutions in buffer solution, as known in the art. […]

COMPOUND: COc1cc(C)ccc1C(=O)n1nc(-c2ccccn2)nc1NCc1ccccc1 [Cmpd 253]
IC50: < 100 nM
--
COMPOUND: CCc1ccccc1C(=O)n1nc(-c2ccccn2)nc1NCc1ccccc1 [Cmpd 246]
IC50: 100 to 1000 nM
--
COMPOUND: O=C(c1ccsc1)n1nc(-c2ccccc2)nc1NCc1ccc(F)cc1 [Cmpd 222]
IC50: < 100 nM
--
COMPOUND: O=C(c1c(F)cccc1F)n1nc(-c2ccccn2)nc1NCc1ccccc1 [Cmpd 239]
IC50: 100 to 1000 nM
--
COMPOUND: COc1ccc(C(=O)n2nc(-c3ccccn3)nc2NCc2ccccc2)c(F)c1 [Cmpd 248]
IC50: < 100 nM

Any idea what IC50 was measured for O=C(c1ccccc1Br)n1nc(-c2ccccn2)nc1NCc1ccccc1 [Cmpd 240] ?
< 100 nM

And the next one, CC(C)c1ccccc1C(=O)n1nc(-c2ccccn2)cc1NCc1ccccc1 [Cmpd 276] ?
> 1000 nM

Similarly, CC(C)c1ccccc1C(=O)n1nc(-c2ccccn2)nc1NCc1ccccc1 [Cmpd 275] ?
> 1000 nM

Also check O=C(c1cccc2ccccc12)n1nc(-c2ccccn2)nc1NCc1ccccc1 [Cmpd 269]
< 100 nM

====

ASSAYED_SYSTEM: Human thrombin (Homo sapiens, UniProt P00734)
Construct: purchased Haematologic Technologies Inc
ASSAY_EXPLANATION: Inhibition of the protease activity of thrombin (chromogenic substrate S-2238)
Format: biochemical
CONDITION: inhibition of the protease activity of thrombin; class symbols a/b/c
pIC50: −log10 of the molar value.
Let's look at some compounds and their measured pIC50.

Fill in the blank: the reported pIC50 of O=C(c1ccsc1)n1nc(-c2ccncc2)nc1NCc1ccc(F)cc1 [Cmpd 15] is ____.
> 7.00

Please do the same for CCCC(=O)n1nc(-c2ccncc2)nc1NCc1ccc(OC)cc1 [Cmpd 99] as well.
> 7.00

====

Quick reference for IC50 among some compounds
ASSAYED_SYSTEM: Human thrombin (Homo sapiens, UniProt P00734)
Construct: purchased Haematologic Technologies Inc
ASSAY_EXPLANATION: Inhibition of the protease activity of thrombin (chromogenic substrate S-2238)
Format: biochemical
CONDITION: inhibition of the protease activity of thrombin; class symbols a/b/c

Sample records with IC50:
SMILES_STRING: COc1ccc(C(=O)n2nc(-c3ccccc3F)cc2NCc2ccccc2)c(N)c1
ASSAYED_SYSTEM: Human thrombin (Homo sapiens, UniProt P00734)
PROPERTY_NAME: IC50
RESULT: > 1000 nM
//
SMILES_STRING: CN(C)C(=O)c1cn(-c2ccccn2)nc1NCc1ccc(F)cc1
ASSAYED_SYSTEM: Human thrombin (Homo sapiens, UniProt P00734)
PROPERTY_NAME: IC50
RESULT: > 1000 nM

What does the data say about its IC50? Entry: O=C(Oc1ccccc1F)n1nc(-c2cccnc2)nc1NCc1ccc(F)cc1
> 1000 nM

Now give it for CC(C)CC(=O)n1nc(-c2ccccn2)nc1NCc1ccc(F)cc1 too.
< 100 nM

Next record, please: CCC(=O)c1cn(-c2ccccn2)nc1NCc1ccc(F)cc1
> 1000 nM

====

ASSAYED_SYSTEM: Human thrombin (Homo sapiens)
Construct: purchased Haematologic Technologies Inc
ASSAY_EXPLANATION: Inhibition of the protease activity of thrombin (chromogenic substrate S-2238)
Assay type: biochemical
CONDITION: inhibition of the protease activity of thrombin; class symbols a/b/c
Overview of recorded IC50 for various molecules

MOLECULE: O=C(Nc1ccccc1)c1cn(-c2ccccn2)nc1NCc1ccc(F)cc1
IC50: > 1000 nM

# query: IC50 | item Nc1cc(-c2ccccn2)nn1-c1ccccc1Cl | system: Human thrombin (Homo sapiens)
> 1000 nM

Same thing, different molecule: CCCC(=O)n1nc(-c2ccccn2)nc1NCc1ccccc1
< 100 nM

====

ASSAYED_SYSTEM: Human thrombin (Homo sapiens)
Construct: purchased Haematologic Technologies Inc
ASSAY_EXPLANATION: Inhibition of the protease activity of thrombin (chromogenic substrate S-2238)
Assay type: biochemical
CONDITION: Table C; 3 nM thrombin, 125 μM S-2238, 10 min pre-incubation, RT
pIC50: −log10 of the molar value.
Each entry below carries its reported pIC50.

COMPOUND: COc1ccccc1C(=O)n1nc(-c2ccccc2)nc1NCc1ccco1 [Cmpd 394]
PROPERTY_NAME: pIC50
RESULT: > 7.00

Record request: pIC50 value, item COc1ccccc1CNc1nc(-c2cccnc2)nn1C(=O)c1cccnc1 [Cmpd 398]
< 6.00

====

ASSAYED_SYSTEM: Human thrombin (Homo sapiens, UniProt P00734)
Construct: purchased Haematologic Technologies Inc
ASSAY_EXPLANATION: Inhibition of the protease activity of thrombin (chromogenic substrate S-2238)
Type: biochemical
CONDITION: inhibition of the protease activity of thrombin; class symbols a/b/c
// values below are reported IC50

The following compounds have reported results that may help.
COMPOUND: COc1ccccc1C(=O)n1nc(-c2cncnc2)nc1NCc1ccccc1
ASSAYED_SYSTEM: Human thrombin (Homo sapiens, UniProt P00734)
IC50: < 100 nM
//
COMPOUND: CCC(=O)n1nc(-c2cccnc2)nc1NCCN1CCOCC1
ASSAYED_SYSTEM: Human thrombin (Homo sapiens, UniProt P00734)
IC50: > 1000 nM
//
COMPOUND: O=C(CCc1ccccc1)n1nc(-c2ccncc2)nc1NCc1ccc(F)cc1
ASSAYED_SYSTEM: Human thrombin (Homo sapiens, UniProt P00734)
IC50: < 100 nM
//
COMPOUND: COc1ccc(CNc2nc(-c3cccnc3)nn2C(=O)C(C)(C)C)cc1
ASSAYED_SYSTEM: Human thrombin (Homo sapiens, UniProt P00734)
IC50: < 100 nM
//
COMPOUND: CC(C)C(=O)n1nc(-c2ccncc2)nc1NCc1ccccc1
ASSAYED_SYSTEM: Human thrombin (Homo sapiens, UniProt P00734)
IC50: < 100 nM
//
COMPOUND: O=C(Nc1nc(C(=O)N2CCOCC2)n[nH]1)c1ccccc1Cl
ASSAYED_SYSTEM: Human thrombin (Homo sapiens, UniProt P00734)
IC50: > 1000 nM
//
COMPOUND: Cc1ccc(C(=O)Nc2nc(C(=O)N3CCOCC3)n[nH]2)cc1
ASSAYED_SYSTEM: Human thrombin (Homo sapiens, UniProt P00734)
IC50: > 1000 nM
//
COMPOUND: Fc1ccc(CNc2cc(-c3ccccn3)nn2-c2ccccc2Cl)cc1
ASSAYED_SYSTEM: Human thrombin (Homo sapiens, UniProt P00734)
IC50: > 1000 nM

// moving on: another record for IC50
Item under review: CCC(=O)n1nc(-c2ccccc2)c(C)c1NCc1ccc(F)cc1 . Reported IC50?
> 1000 nM
